Values from paper PMC3849647

assay: Pharmacokinetics of CR8 in mouse plasma after oral and i.v. administration (HPLC-UV); assay type: in vivo, mice; conditions: female, BALB/c, mouse, plasma, iv, 50 mg/kg, plasma, i.v. bolus 50 mg/kg; read-out: Tβ (terminal elimination half-life) (converted)
property label: half-life (h)

In [3]: df
Out[3]:
                              sample_smiles  recorded_measurement
0  CC[C@H](CO)Nc1nc(NCc2ccc(-c3ccccn3)cc2)c2ncn(C(C)C)c2n1                  2.95

* * *

experiment: Pharmacokinetics of CR8 in mouse plasma after oral and i.v. administration (HPLC-UV); format: in vivo, mice; conditions: female, BALB/c, mouse, plasma, iv, 50 mg/kg, plasma, i.v. bolus 50 mg/kg, estimated; read-out: Cmax (maximum reached concentration)
property label: Cmax

>>> print(df.to_string())
                              sample_smiles  recorded_measurement
0  CC[C@H](CO)Nc1nc(NCc2ccc(-c3ccccn3)cc2)c2ncn(C(C)C)c2n1           > 100 µg/mL
